# pKd values compiled below
TESTED_SYSTEM: TSLP, Q969D9
PROCEDURE_SUMMARY: Kd (SPR)
Value format note: pKd is -log10 of concentration (mol/L); just state the number.

Observe how each entry below is paired with its result.
>>> meas_value("unnamed (protein) chain 1: QMQLVESGGGVVQPGRSLRLSCAASGFTFSTYAMHWVRQAPGKGLEWVAVIWYDGSNKHYADSVKGRFTITRDNSKNTLNLQMNSLRAEDTAVYYCARAPRYDERYEAFDVWGQGTMVTVSS chain 2: SYVLTQPPSVSVAPGQTARITCGGNNLGSKSVHWYQQKPGQAPVLVVYDDSDRPSWIPERFSGSNSGNTATLTISRGEAGDEADYYCQVWDSSSDHVVFGGGTKLTVL")
6.16
>>> meas_value("unnamed (protein) chain 1: QMQLVESGGGVVQPGRSLRLSCAASGFTFSTFAMHWVRQAPGKGLEWVAVIWYDGSNKHYADSVKGRFTITRDNSKNTLNLQMNSLRAEDTAVYYCARAPRYDEDYEAFDVWGQGTMVTVSS chain 2: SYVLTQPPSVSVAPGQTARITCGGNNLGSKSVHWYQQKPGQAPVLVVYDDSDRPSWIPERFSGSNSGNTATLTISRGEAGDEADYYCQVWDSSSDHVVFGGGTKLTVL")
6.83
>>> meas_value("unnamed (protein) chain 1: QMQLVESGGGVVQPGRSLRLSCAASGFTFSTFAMHWVRQAPGKGLEWVAVIWYDGSNKHYADSVKGRFTITRDNSKNTLNLQMNSLRAEDTAVYYCARAPRYDWDYEAFDVWGQGTMVTVSS chain 2: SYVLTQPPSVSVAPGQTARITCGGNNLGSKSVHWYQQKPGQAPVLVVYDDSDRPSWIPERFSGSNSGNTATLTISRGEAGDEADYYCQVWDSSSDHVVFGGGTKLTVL")
6.46
>>> meas_value("unnamed (protein) chain 1: QMQLVESGGGVVQPGRSLRLSCAASGFTFSTFAMHWVRQAPGKGLEWVAVIWYDGSNKHYADSVKGRFTITRDNSKNTLNLQMNSLRAEDTAVYYCARSPRYDDYWEAFDVWGQGTMVTVSS chain 2: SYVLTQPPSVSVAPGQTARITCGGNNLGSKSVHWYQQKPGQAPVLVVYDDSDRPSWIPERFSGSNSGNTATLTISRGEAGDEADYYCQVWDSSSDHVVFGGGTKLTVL")
6.49

Turning now to a further binder:
QUERY: Indicate its recorded pKd; the binder in question is unnamed (protein) chain 1: QMQLVESGGGVVQPGRSLRLSCAASGFTFSTFAMHWVRQAPGKGLEWVAVIWYDGSNKHYADSVKGRFTITRDNSKNTLNLQMNSLRAEDTAVYYCARSPRYDEYYEAFDVWGQGTMVTVSS chain 2: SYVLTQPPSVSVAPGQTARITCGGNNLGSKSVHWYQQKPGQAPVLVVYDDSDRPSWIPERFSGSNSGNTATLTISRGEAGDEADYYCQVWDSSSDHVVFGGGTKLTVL
RESULT: 6.99
